# Test system: Scytalidium hyalinum
# METHOD: Antimicrobial activity against Scytalidium hyalinum by broth microdilution method
# Assay type: functional
# TEST_CONTEXT: Neoscytalidium hyalinum
MEASURED_PARAMETER: MIC50 (µg/mL)
Please respond with the number in µg/mL and leave the unit unwritten.

As a guide, the following entries are already answered.
# COMPOUND, MIC50 (µg/mL)
rows = [
    ("CCC(C)n1ncn(-c2ccc(N3CCN(c4ccc(OCC5COC(Cn6cncn6)(c6ccc(Cl)cc6Cl)O5)cc4)CC3)cc2)c1=O (centres undefined) [ITRACONAZOLE]", 0.12),
    ("C[C@@H](c1ncncc1F)[C@](O)(Cn1cncn1)c1ccc(F)cc1F [VORICONAZOLE]", 0.06),
    ("CC[C@H](C)C[C@H](C)CCCCCCCCC(=O)N[C@H]1C[C@@H](O)[C@@H](NCCN)NC(=O)[C@@H]2[C@@H](O)CCN2C(=O)[C@H]([C@H](O)CCN)NC(=O)[C@H]([C@H](O)[C@@H](O)c2ccc(O)cc2)NC(=O)[C@@H]2C[C@@H](O)CN2C(=O)[C@H]([C@@H](C)O)NC1=O [CASPOFUNGIN]", 0.25),
]

Please give the measured MIC50 for this compound: C[C@@H]1[C@H](O)[C@@H](C)/C=C/C=C/C=C/C=C/C=C/C=C/C=C/[C@H](O[C@@H]2O[C@H](C)[C@@H](O)[C@H](N)[C@@H]2O)C[C@@H]2O[C@](O)(C[C@@H](O)C[C@@H](O)[C@H](O)CC[C@@H](O)C[C@@H](O)CC(=O)O[C@H]1C)C[C@H](O)[C@H]2C(=O)O [AMPHOTERICIN B]
0.25
